# Lookup of reported C3b Dep (nM), cyno serum, IC50 keyed by entry
Target: cynomolgus complement C3b protein (cynomolgus monkey (Macaca fascicularis))
Assay: cell-based or functional assay

Some binders with recorded C3b Dep (nM), cyno serum, IC50:
INPUT: Reported C3b Dep (nM), cyno serum, IC50, binder MOR9675 Fab format (Fab, V domains shown) VH: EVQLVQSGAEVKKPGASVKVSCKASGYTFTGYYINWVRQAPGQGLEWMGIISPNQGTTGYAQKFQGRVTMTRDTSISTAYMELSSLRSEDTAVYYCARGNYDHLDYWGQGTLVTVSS VL: DIQMTQSPSSLSASVGDRVTITCRASQGISNYLNWYQQKPGKAPKLLIYDASTLQSGVPSRFSGSGSGTDFTLTISSLQPEDFATYYCQQDWHTLPVTFGQGTKVEIK : ____
OUTPUT: 43 nM

INPUT: Reported C3b Dep (nM), cyno serum, IC50, binder MOR9556 Fab format (Fab, V domains shown) VH: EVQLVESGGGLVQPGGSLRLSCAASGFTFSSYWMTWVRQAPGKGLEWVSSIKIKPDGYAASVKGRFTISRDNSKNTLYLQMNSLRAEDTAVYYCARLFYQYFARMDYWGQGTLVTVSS VL: DIQMTQSPSSLSASVGDRVTITCRASQDISNYLNWYQQKPGKAPKLLIYAASNLQSGVPSRFSGSGSGTDFTLTISSLQPEDFATYYCQQYDSYSPTFGQGTKVEIK : ____
OUTPUT: 43 nM

INPUT: Reported C3b Dep (nM), cyno serum, IC50, binder MOR9610 Fab format (Fab, V domains shown) VH: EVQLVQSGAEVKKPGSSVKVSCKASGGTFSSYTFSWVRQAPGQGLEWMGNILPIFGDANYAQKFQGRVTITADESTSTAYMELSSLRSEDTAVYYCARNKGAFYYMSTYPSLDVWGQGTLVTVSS VL: DIQMTQSPSSLSASVGDRVTITCRASQNINYYLNWYQQKPGKAPKLLIYDAFSLQSGVPSRFSGSGSGTDFTLTISSLQPEDFATYYCQQSIAVPPFTFGQGTKVEIK : ____
OUTPUT: 39 nM

Proceed to the following item.
INPUT: Reported C3b Dep (nM), cyno serum, IC50, binder MOR9674 Fab format (Fab, V domains shown) VH: EVQLVQSGAEVKKPGASVKVSCKASGYTFTSYSMHWVRQAPGQGLEWMGLINPYNGNTHYAQKFQGRVTMTRDTSISTAYMELSSLRSEDTAVYYCARMLRFDVWGQGTLVTVSS VL: ESALTQPASVSGSPGQSITISCTGTSSDGGGYNYVSWYQQHPGKAPKLMIYGVSNRPSGVSNRFSGSKSGNTASLTISGLQAEDEADYYCQTYTRYSDSPVFGGGTKLTVLG : ____
OUTPUT: 70 nM
